A collection of compounds and their measured IC50
# measurement-target: human DGAT1 enzyme (Homo sapiens, UniProt O75907)
# Construct: made in house; host or cells: Sf9 insect cells (microsomal membranes)
# Sequence (O75907 1-488): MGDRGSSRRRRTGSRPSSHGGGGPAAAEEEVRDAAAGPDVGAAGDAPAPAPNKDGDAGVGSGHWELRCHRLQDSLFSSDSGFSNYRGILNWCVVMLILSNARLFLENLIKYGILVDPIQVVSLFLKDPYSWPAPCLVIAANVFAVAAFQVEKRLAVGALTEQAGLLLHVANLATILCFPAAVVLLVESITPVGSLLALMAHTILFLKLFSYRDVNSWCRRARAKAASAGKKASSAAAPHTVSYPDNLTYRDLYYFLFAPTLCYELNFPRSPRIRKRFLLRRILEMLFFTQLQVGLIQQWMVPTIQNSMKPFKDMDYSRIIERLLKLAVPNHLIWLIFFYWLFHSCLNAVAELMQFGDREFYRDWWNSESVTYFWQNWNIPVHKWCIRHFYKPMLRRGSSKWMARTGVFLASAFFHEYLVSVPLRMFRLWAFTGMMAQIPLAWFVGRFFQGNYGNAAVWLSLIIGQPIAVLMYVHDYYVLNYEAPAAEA
# assay-text: in vitro DGAT1 inhibition assay (microsomes, [14C]-palmitoyl-CoA, SPA beads)
# Assay type: biochemical
# condition-details: human DGAT1 expressed in Sf9 insect cells, microsomes; 2 hours at room temperature; read-out: IC50
property-name: IC50 (nM)

compound	property-name	val
Cc1c(C(=O)Nc2ccc(N3CCN(C(=O)Nc4ccccc4C(=O)O)CC3)nc2)oc2ccc(-c3ccccc3F)cc12 [Example 24]	IC50	59
O=C(Nc1ccc(N2CCN(C(=O)Nc3ccccc3F)CC2)nc1)c1coc2ccccc12 [Example 11]	IC50	95
O=C(Nc1ccc(N2CCN(C(=O)Nc3ccccc3F)CC2)nc1)c1csc2ccccc12 [Example 10]	IC50	37
COc1ccccc1-c1ccc2oc(C(=O)Nc3ccc(N4CCC(COc5cccc(C(=O)O)c5)CC4)nc3)c(C)c2c1 [Example 71]	IC50	171
CCOC(=O)c1ccccc1NC(=O)N1CCN(c2ccc(NC(=O)c3oc4ccc(-c5cccc(F)c5)cc4c3C)cn2)CC1 [Example 30]	IC50	1420
